// provenance: patent US12042530B2

- test_target: HLA-A*0201 (HLA-A2) peptide complexes (Homo sapiens, UniProt P04439, D140Y/D185E/D98H/E176V/E277Q/G131W/G231S/I119V/I121R/I166T/I218V/L300P/L318F/N151K/N90K/P208A/P217A/Q86G/Q94H/R138H/R169H/T345S)
- Construct: endogenous in cells; host or cells: JY B-lymphoblastoid line; primary CLL, MCL, AML, ALL samples; healthy splenic T and B cells
- test_method_notes: HLA-A*0201 phosphopeptides associated with leukemia samples (isolation of HLA-associated peptides)
- condition_info: healthy B cells
# reported Copies/cell class, B Cell; entries follow
assay_readout: Copies/cell class, B Cell

1. 459 (RVASPTSGV; SITE (1)..(109: One or more of the listed amino acids can be phosphorylated as set forth in the Tables; listed as Homo sapiens) [compound 459] :: 0
2. 440 (KLIDRTESL; SITE (1)..(9): One or more of the listed amino acids can be phosphorylated as set forth in the Tables; listed as Homo sapiens) [compound 440] :: 0
3. 464 (VMIGSPKKV; SITE (1)..(9): One or more of the listed amino acids can be phosphorylated as set forth in the Tables; listed as Homo sapiens) [compound 464] :: 0
4. 436 (KAKSPAPGL; SITE (1)..(9): One or more of the listed amino acids can be phosphorylated as set forth in the Tables; listed as Homo sapiens) [compound 436] :: 0
